# assay remarks: Remote loading efficiency of small molecules into liposomes (PD-10 size exclusion, HPLC)
# Format: physicochemical
# assay setup: formulation F2, HEPES, drug/lipid ratio 0.10, 3 h
quantity: Remote loading efficiency 3 h (%)

compound	quantity	units symbol	test result
CCOCc1nc2c(N)nc3ccccc3c2n1CCN [MK079-D]	Remote loading efficiency 3 h (%)	%	88
CCOCc1nc2c(N)nc3ccccc3c2n1CCNC(=O)[C@@H](N)C(C)C [MK089]	Remote loading efficiency 3 h (%)	%	104
CCNCc1nc2c(N)nc3ccccc3c2n1CC(C)(C)O [Gardiquimod, reference compound]	Remote loading efficiency 3 h (%)	%	92

1: CCOCc1nc2c(N)nc3ccccc3c2n1CCNC(=O)CN [MK087]
2: CCOCc1nc2c(N)nc3ccccc3c2n1CCNC(=O)[C@H](C)N [MK088]
(Q) Returns: the argument ( 1 or 2 ) having the larger Remote loading efficiency 3 h (%). Identify your pick by its label.
(A) 2
(2: 95%, 1: 60%)

----------
# assay remarks: Remote loading efficiency of small molecules into liposomes (PD-10 size exclusion, HPLC)
# Type: physicochemical
# assay setup: formulation F3, drug/lipid ratio 0.10, 3 h; mean (SD), n = 2
quantity: Remote loading efficiency 3 h (%)

molecule	Remote loading efficiency 3 h (%)
CCCCc1nc2c(N)nc3ccccc3c2n1Cc1ccc(CNC(=O)[C@@H](N)C(C)C)cc1 [MK145]	92.4 (3.9) %
CCCCc1nc2c(N)nc3ccccc3c2n1Cc1ccc(CNC(=O)CN)cc1 [MK139]	90.6 (1.6) %

So for CCCCc1nc2c(N)nc3ccccc3c2n1Cc1ccc(CN)cc1 [MK130] , the logged Remote loading efficiency 3 h (%) turned out to be 96.7 (1.3) %

Just so you know, measured Remote loading efficiency 3 h (%) for CCCCc1nc2c(N)nc3ccccc3c2n1Cc1ccc(CNC(=O)[C@@H]2CCCN2)cc1 [MK140] came out at 98.3 (3.4) %

The measured Remote loading efficiency 3 h (%) associated with CCCCc1nc2c(N)nc3ccccc3c2n1Cc1ccc(CNC(=O)[C@@H](N)CC(N)=O)cc1 [MK135] reads 86.4 (5.1) %

----------
# assay remarks: Remote loading efficiency of small molecules into liposomes (PD-10 size exclusion, HPLC)
# Format: physicochemical
# assay setup: formulation F3, drug/lipid ratio 0.10, 3 h; mean (SD), n = 2
Listed here: items and their measured Remote loading efficiency 3 h (%).

smiles data	Remote loading efficiency 3 h (%)
CCCCc1nc2c(N)nc3ccccc3c2n1Cc1ccc(CNC(=O)[C@H](C)N)cc1	99.1 (1.8) %
CCCCc1nc2c(N)nc3ccccc3c2n1Cc1ccc(CNC(=O)[C@@H](N)[C@@H](C)CC)cc1	88.4 (1.5) %
CCCCc1nc2c(N)nc3ccccc3c2n1Cc1ccc(CNC(=O)[C@@H](N)CCC(N)=O)cc1	3.1 (0.4) %

The recorded Remote loading efficiency 3 h (%) for `CCCCc1nc2c(N)nc3ccccc3c2n1Cc1ccc(CNC(=O)[C@@H](N)Cc2ccc(O)cc2)cc1` is 81.2 (2.1) %

----------
# assay remarks: Remote loading efficiency of small molecules into liposomes (PD-10 size exclusion, HPLC)
# Type: physicochemical
# assay setup: formulation F2, HEPES, drug/lipid ratio 0.10, 1 h
quantity: Remote loading efficiency 1 h (%)

Worked cases, answers included:
molecule	units symbol	Remote loading efficiency 1 h (%)
CCOCc1nc2c(N)nc3ccccc3c2n1CCNC(=O)[C@@H](N)C(C)C	%	100
CCOCc1nc2c(N)nc3ccccc3c2n1CCN	%	82
CCOCc1nc2c(N)nc3ccccc3c2n1CCNC(=O)[C@H](C)N	%	95

I: CCNCc1nc2c(N)nc3ccccc3c2n1CC(C)(C)O [Gardiquimod, reference compound]
II: CCOCc1nc2c(N)nc3ccccc3c2n1CCNC(=O)CN
(Q) Out of I and II , name the one with the higher Remote loading efficiency 1 h (%). // output: label of the selected item
(A) I

----------
# assay remarks: Remote loading efficiency of small molecules into liposomes (PD-10 size exclusion, HPLC)
# Type: physicochemical
# assay setup: formulation F1, HEPES, drug/lipid ratio 0.10, 3 h
quantity: Remote loading efficiency 3 h (%)

compound	Remote loading efficiency 3 h (%)
CCOCc1nc2c(N)nc3ccccc3c2n1CCN	95

1: CCOCc1nc2c(N)nc3ccccc3c2n1CCNC(=O)[C@H](C)N
2: CCOCc1nc2c(N)nc3ccccc3c2n1CCNC(=O)CN
(Q) Please tell me which of the two, 1 or 2 , has the higher reported Remote loading efficiency 3 h (%) value. Let me know the label of the one you choose.
(A) 1
(1: 115%, 2: 73%)

----------
# assay remarks: Remote loading efficiency of small molecules into liposomes (PD-10 size exclusion, HPLC)
# Format: physicochemical
# assay setup: formulation F3, drug/lipid ratio 0.10, 1 h; mean (SD), n = 2
Remote loading efficiency 1 h (%) listing for selected compounds.

The examples below pair each entry with its known result.
smiles data	Remote loading efficiency 1 h (%)
CCCCc1nc2c(N)nc3ccccc3c2n1Cc1ccc(CNC(=O)[C@@H](N)Cc2ccc(O)cc2)cc1	83.8 (3.0) %
CCCCc1nc2c(N)nc3ccccc3c2n1Cc1ccc(CNC(=O)[C@@H]2CCCN2)cc1	93.6 (0.1) %
CCCCc1nc2c(N)nc3ccccc3c2n1Cc1ccc(CNC(=O)[C@@H](N)CCC(N)=O)cc1	2.0 (0.2) %
CCCCc1nc2c(N)nc3ccccc3c2n1Cc1ccc(CNC(=O)[C@H](C)N)cc1	98.1 (5.2) %

Lookup result for `CCCCc1nc2c(N)nc3ccccc3c2n1Cc1ccc(CNC(=O)[C@@H](N)C(C)C)cc1` ; measured Remote loading efficiency 1 h (%): 97.2 (4.0) %

----------
# Test system: RAW-Blue cells
# assay remarks: NF-κB induction in RAW-Blue reporter cells (RAW 264.7 macrophages, SEAP)
# Assay type: cell-based
# assay setup: RAW-Blue; sigmoidal 4PL fitting, 24 h
quantity: EC50 (µM)

Would you please look over these solved cases?
compound	units symbol	EC50
CCCCc1nc2c(N)nc3ccccc3c2n1Cc1ccc(CNC(=O)CN)cc1	µM	0.34
CCCCc1nc2c(N)nc3ccccc3c2n1Cc1ccc(CNC(=O)[C@H](C)N)cc1	µM	0.04
CCCCc1nc2c(N)nc3ccccc3c2n1Cc1ccc(CNC(=O)[C@@H](N)Cc2ccccc2)cc1	µM	0.04
CCCCc1nc2c(N)nc3ccccc3c2n1Cc1ccc(CNC(=O)[C@@H](N)Cc2ccc(O)cc2)cc1	µM	0.13

a: CCCCc1nc2c(N)nc3ccccc3c2n1Cc1ccc(CN)cc1
b: CCNCc1nc2c(N)nc3ccccc3c2n1CC(C)(C)O [Gardiquimod, reference compound]
c: CCOCc1nc2c(N)nc3ccccc3c2n1CC(C)(C)O [R848, Resiquimod, reference compound]
d: CCCCc1nc2c(N)nc3ccccc3c2n1Cc1ccc(CNC(=O)CC)cc1
(Q) Rank descending by EC50. The reply should contain the labels ordered as requested.
(A) b, c, d, a

I: CCCCc1nc2c(N)nc3ccccc3c2n1Cc1ccc(CNC(=O)[C@@H](N)C(C)C)cc1
II: CCCCc1nc2c(N)nc3ccccc3c2n1Cc1ccc(CNC(=O)[C@@H]2CCCN2)cc1
III: CCCCc1nc2c(N)nc3ccccc3c2n1Cc1ccc(CNC(=O)[C@@H](N)CCC(N)=O)cc1
IV: CCCCc1nc2c(N)nc3ccccc3c2n1Cc1ccc(CNC(C)=O)cc1
V: CCCCc1nc2c(N)nc3ccccc3c2n1Cc1ccc(CNC(=O)[C@@H](N)CC(N)=O)cc1
(Q) rank_up(items): orders items by reported EC50 in ascending numerical order. Answer format: the labels, ordered as requested.
(A) I, II, IV, V, III
(I: 0.03 µM, II: 0.05 µM, IV: 0.12 µM, V: 0.42 µM, III: 0.74 µM)

----------
# assay remarks: Remote loading efficiency of small molecules into liposomes (PD-10 size exclusion, HPLC)
# Format: physicochemical
# assay setup: formulation F3, drug/lipid ratio 0.10, 1 h; mean (SD), n = 2
quantity: Remote loading efficiency 1 h (%)

Measured Remote loading efficiency 1 h (%) of `CCCCc1nc2c(N)nc3ccccc3c2n1Cc1ccc(CNC(=O)[C@@H](N)[C@@H](C)CC)cc1` : 94.1 (2.9) %

// Remote loading efficiency 1 h (%) value for `CCCCc1nc2c(N)nc3ccccc3c2n1Cc1ccc(CNC(=O)CN)cc1` : 84.7 (17.4) %

Form: molecule = `CCCCc1nc2c(N)nc3ccccc3c2n1Cc1ccc(CN)cc1` ; Remote loading efficiency 1 h (%) = 93.8 (5.8) %

// field: Remote loading efficiency 1 h (%); key: `CCCCc1nc2c(N)nc3ccccc3c2n1Cc1ccc(CNC(=O)[C@@H](N)CC(N)=O)cc1` ; value = 85.9 (4.7) %
